assay-comment: E-2.3 inhalative, oral and intravenous single doses in healthy male subjects: plasma concentrations and lung deposition
Type: in vivo, human
measurement-conditions: male, human, plasma, iv, 100 μg, healthy male subjects, 100 μg IV infusion over 2 h, N = 15; 0.75 h after dose; read-out: Geometric mean of plasma concentrations
measurement-label: concentration at 0.75 h (ng/mL)
Answers are plain numbers, in ng/mL.

Which value of concentration at 0.75 h has been reported for `O=C(O)c1ccc(CCN(CCc2ccccc2OCc2ccc(-c3ccc(C(F)(F)F)cc3)cc2Cl)[C@H]2CCCc3nc(C(=O)O)ccc32)cc1` in the records?
2.68

* * *

assay-comment: E-2.3 inhalative, oral and intravenous single doses in healthy male subjects: plasma concentrations and lung deposition
Type: in vivo, human
measurement-conditions: male, human, plasma, iv, 100 μg, healthy male subjects, 100 μg IV infusion over 2 h, N = 15; 0 h after dose; heading: Geometric mean of plasma concentrations
measurement-label: concentration at 0 h

Which value of concentration at 0 h has been reported for O=C(O)c1ccc(CCN(CCc2ccccc2OCc2ccc(-c3ccc(C(F)(F)F)cc3)cc2Cl)[C@H]2CCCc3nc(C(=O)O)ccc32)cc1 [example 4] in the records?
< 0.05 ng/mL

// provenance: patent US12202805B2
